For each entry below, report its log10 MIC value.
Test system: spores of ATCC BBA1870 strain
Test: Inhibition of germination of C. difficile spores (MIC), strain ATCC BBA1870
Assay type: cell-based
Details: Clostridioides difficile, ATCCBBA1870STRAIN, 1 h; strain 1870; sodium taurocholate as germinant, BHIS medium, 37° C., OD580 for 60 min; read-out: MIC (minimum concentration that completely inhibits spore germination)
Please be aware that the numbers have been log10-transformed from MIC in µM.

**Q:** Lab note: record log10 MIC of "CC[C@@H](NC(=O)C[C@@H](C)[C@H]1CC[C@H]2[C@@H]3[C@@H](O)C[C@@H]4CC(=O)CC[C@]4(C)[C@H]3CC[C@]12C)c1ccc(Cl)s1" tested on spores of ATCC BBA1870 strain.
**A:** 1.51

**Q:** Return reported log10 MIC for target or system spores of ATCC BBA1870 strain, item "CC[C@H](NC(=O)C[C@@H](C)[C@H]1CC[C@H]2[C@@H]3C[C@H](O)[C@@H]4CC(=O)CC[C@]4(C)[C@H]3CC[C@]12C)c1ccc(Cl)s1" .
**A:** 0.60

**Q:** // output log10 MIC; input CCC(NC(=O)C[C@@H](C)[C@H]1CC[C@H]2[C@@H]3[C@H](OS(=O)(=O)O)C[C@@H]4CC(=O)CC[C@]4(C)[C@H]3CC[C@]12C)c1ccc(Cl)s1 (stereo partly shown) ; system spores of ATCC BBA1870 strain
**A:** 0.00

**Q:** Under spores of ATCC BBA1870 strain: report log10 MIC of CC(C)C(NC(=O)C[C@@H](C)[C@H]1CC[C@H]2[C@@H]3[C@H](O)C[C@@H]4CC(=O)CC[C@]4(C)[C@H]3CC[C@]12C)c1ccc(Cl)s1 (stereo partly shown) .
**A:** -0.60

**Q:** Provide the reported log10 MIC (system: spores of ATCC BBA1870 strain) for "C[C@H](CC(=O)NCc1nccs1)[C@H]1CC[C@H]2[C@@H]3C(=O)C[C@@H]4C[C@H](O)CC[C@]4(C)[C@H]3CC[C@]12C"
**A:** 1.51

**Q:** Write log10 MIC of CC(C)C(NC(=O)C[C@@H](C)[C@H]1CC[C@H]2[C@@H]3[C@H](OS(=O)(=O)O)C[C@@H]4CC(=O)CC[C@]4(C)[C@H]3CC[C@]12C)c1ccc(Cl)s1 (stereo partly shown) ; system used: spores of ATCC BBA1870 strain
**A:** 0.00

**Q:** For spores of ATCC BBA1870 strain, give the measured log10 MIC of the entry CC(NC(=O)C[C@@H](C)[C@H]1CC[C@H]2[C@@H]3C(=O)C[C@@H]4CC(=O)CC[C@]4(C)[C@H]3CC[C@]12C)c1cccs1 (stereo partly shown)
**A:** 0.30

**Q:** Fill in log10 MIC for "CC[C@@H](NC(=O)C[C@@H](C)[C@H]1CC[C@H]2[C@@H]3[C@H](O)C[C@@H]4CC(=O)CC[C@]4(C)[C@H]3CC[C@]12C)c1cccs1" tested with spores of ATCC BBA1870 strain.
**A:** 0.30

---

System: spores of ATCC BBA1870 strain
Assay: Inhibition of germination of C. difficile spores (MIC), strain ATCC BBA1870
Assay type: cell-based
Details: Clostridioides difficile, ATCCBBA1870STRAIN, 1 h; strain 1870; sodium taurocholate as germinant, BHIS medium, 37° C., OD580 for 60 min; read-out: MIC (minimum concentration that completely inhibits spore germination)
Protocol: According to a method disclosed in “The Journal of Infectious Diseases. 2013; 207: 1498-504”, spores of ATCC BBA1870, ATCC 43255 and ATCC 630 strains were obtained by culture and purification, and stored at 4° C. Spore preparation: the C. difficile spores stored at 4° C. were heat-activated for 30 min at 65° C., centrifuged at 9,400 g for 2 min, and washed three times to remove any self-germinating spores. […]
Can you tell me MIC for the items I'm about to list?
Please reply with the bare figure in µM and do not write the unit itself.

**Q:** Consider the molecule CC[C@@H](NC(=O)C[C@@H](C)[C@H]1CC[C@H]2[C@@H]3C(=O)C[C@@H]4CC(=O)CC[C@]4(C)[C@H]3CC[C@]12C)c1ccc(S(=O)(=O)O)s1 [Compound I-74] . State its measured MIC.
**A:** 16

**Q:** Supply recorded MIC for CCC(NC(=O)C[C@@H](C)[C@H]1CC[C@H]2[C@@H]3C[C@H](O)[C@@H]4C[C@H](O)CC[C@]4(C)[C@H]3CC[C@]12C)c1cccs1 (some centres unmarked) [Compound I-125] here.
**A:** 2

**Q:** Look up and report measured MIC for this entry: CCC(NC(=O)C[C@@H](C)[C@H]1CC[C@H]2[C@@H]3C(=O)C[C@@H]4CC(=O)CC[C@]4(C)[C@H]3CC[C@]12C)c1ccc(Br)s1 (some centres unmarked) [Compound I-38]
**A:** 2

**Q:** Provide only the value of recorded MIC for CCC(NC(=O)C[C@@H](C)[C@H]1CC[C@H]2[C@@H]3C(=O)C[C@@H]4CC(=O)CC[C@]4(C)[C@H]3CC[C@]12C)c1ccc(S(=O)(=O)O)s1 (some centres unmarked) [Compound I-39]
**A:** 1

**Q:** Fill in MIC for record CC(C)[C@@H](NC(=O)C[C@@H](C)[C@H]1CC[C@H]2[C@@H]3[C@H](OC(=O)CCCCCCC(=O)O)C[C@@H]4CC(=O)CC[C@]4(C)[C@H]3CC[C@]12C)c1ccc(Cl)s1 [Compound I-189]
**A:** 0.25
